Test system: SUDIPGXIII (diffuse intrinsic pontine glioma line)
test summary: growth inhibition (% activity, log2 RLU normalised to DMSO / staurosporine); higher = more growth inhibition
details: 33 µM
Parameter: growth inhibition. Scope: all listed entries.
Give a bare numeral; the unit % is implied.

Use these answered entries as a reference point.
Cc1nnc(NS(=O)(=O)c2ccc(N)cc2)s1 = -1.87
CCCc1ncc(C[n+]2ccccc2C)c(N)n1 = 0.241
Cc1ccnc(NS(=O)(=O)c2ccc(N)cc2)n1 = 1.12
CCCNC(C)C(=O)Nc1ccccc1C (stereo not given) = -0.434
CN[C@@H]1[C@H](O[C@H]2[C@H](O[C@H]3[C@H](O)[C@@H](O)[C@H](N=C(N)N)[C@@H](O)[C@@H]3N=C(N)N)O[C@@H](C)[C@]2(O)C=O)O[C@@H](CO)[C@H](O)[C@H]1O = 0.85

Per the records, this molecule ( CNCC[C@H](Oc1cccc2ccccc12)c1cccs1 ) has growth inhibition equal to -1.12

Per the records, this molecule ( Nc1ccc(O)c(C(=O)O)c1 ) has growth inhibition equal to -1.01

Per the records, this molecule ( CCN[C@@H]1C[C@H](N)[C@@H](O[C@H]2OC(CN)=CC[C@H]2N)[C@H](O)[C@H]1O[C@H]1OC[C@](C)(O)[C@H](NC)[C@H]1O ) has growth inhibition equal to 2.03

Per the records, this molecule ( COc1ccc2c(c1)c(CC(=O)O)c(C)n2C(=O)c1ccc(Cl)cc1 ) has growth inhibition equal to 2.32

Per the records, this molecule ( O=P(O)(O)C(O)(Cn1ccnc1)P(=O)(O)O ) has growth inhibition equal to -0.376

----------
System: HGGX39 (paediatric high-grade glioma line)
test summary: growth inhibition (% activity, log2 RLU normalised to DMSO / staurosporine); higher = more growth inhibition
details: 33 µM
property name: growth inhibition (%)
Give a bare numeral; the unit % is implied.

Use these answered entries as a reference point.
CN1CCC(OC(c2ccccc2)c2ccccc2)CC1 = 4.23
CCCCOc1ccc(C(=O)CCN2CCCCC2)cc1 = 8.09
CN[C@@H]1[C@H](O[C@H]2[C@H](O[C@H]3[C@H](O)[C@@H](O)[C@H](N=C(N)N)[C@@H](O)[C@@H]3N=C(N)N)O[C@@H](C)[C@]2(O)C=O)O[C@@H](CO)[C@H](O)[C@H]1O = 0.505

// next item, growth inhibition requested
Per the records, this compound ( CCn1cc(C(=O)O)c(=O)c2cc(F)c(N3CCNC(C)C3)c(F)c21 (stereo not given) ) has growth inhibition equal to -4.99

----------
Test system: DIPGX9 (diffuse intrinsic pontine glioma line)
test summary: growth inhibition (% activity, log2 RLU normalised to DMSO / staurosporine); higher = more growth inhibition
details: 33 µM
property name: growth inhibition (%)
Give a bare numeral; the unit % is implied.

Use these answered entries as a reference point.
O=C(C[S+]([O-])Cc1ccco1)NC/C=C\COc1cc(CN2CCCCC2)ccn1 (stereo unspecified) = -0.604
O=c1[nH]c(=O)n(C2CCCO2)cc1F (stereo unspecified) = -0.0713
[O-][n+]1cccc(CO)c1 = -0.317
NC(CO)(CO)CO = 1.18

Per the records, this compound ( NC12CC3CC(CC(C3)C1)C2 ) has growth inhibition equal to 0.931

Per the records, this compound ( Cc1cc2c(cc1S(N)(=O)=O)S(=O)(=O)CCC2 ) has growth inhibition equal to 1.06

Per the records, this compound ( CC(C)NCC(O)c1cc(O)cc(O)c1 (stereo unspecified) ) has growth inhibition equal to 1.82

Per the records, this compound ( O=C(Nc1ccc([N+](=O)[O-])cc1Cl)c1cc(Cl)ccc1O ) has growth inhibition equal to 2.53

----------
Parameter: growth inhibition. Scope: all listed entries.
System: DIPGX37 (H3.3 K27M diffuse intrinsic pontine glioma line)
test summary: growth inhibition (% activity, log2 RLU normalised to DMSO / staurosporine); higher = more growth inhibition
details: 33 µM
Give a bare numeral; the unit % is implied.

Cc1c(Nc2ncccc2C(=O)O)cccc1C(F)(F)F = 2.84
Cc1nc2n(c(=O)c1CCN1CCC(c3noc4cc(F)ccc34)CC1)CCCC2O (configuration not stated) = -0.0675
Nc1nc(=O)n([C@@H]2CS[C@H](CO)O2)cc1F = 3.05
O=C1CCC(N2C(=O)c3ccccc3C2=O)C(=O)N1 (configuration not stated) = -1.06
Clc1ccc(C(c2ccccc2Cl)C(Cl)Cl)cc1 (configuration not stated) = -1.47
CC(C(=O)O)c1ccc(C(=O)c2cccs2)cc1 (configuration not stated) = -0.791
COc1cc2c(cc1OC)CC(=O)N(CCCN(C)C[C@H]1Cc3cc(OC)c(OC)cc31)CC2 = 1.83
Cn1c([N+](=O)[O-])cnc1COC(N)=O = 3.86

Per the records, this compound ( CN(C)CCC(c1ccccc1)c1ccccn1 (configuration not stated) ) has growth inhibition equal to 4.57

Per the records, this compound ( C[C@@](Cc1ccc(O)c(O)c1)(NN)C(=O)O ) has growth inhibition equal to 0.519

Per the records, this compound ( O=C([O-])c1ccccc1O.[Na+] ) has growth inhibition equal to 2.5

Per the records, this compound ( O=C(O)c1cccnc1Nc1cccc(C(F)(F)F)c1 ) has growth inhibition equal to 3.58

----------
System: SUDIPGVI (diffuse intrinsic pontine glioma line)
test summary: growth inhibition (% activity, log2 RLU normalised to DMSO / staurosporine); higher = more growth inhibition
details: 33 µM
property name: growth inhibition (%)
Give a bare numeral; the unit % is implied.

Use these answered entries as a reference point.
CN1CCC(=C2c3ccccc3C=Cc3ccccc32)CC1 = 1.48
Cc1c(O)c(=O)ccn1C = 0.573
CC(=O)O[C@]1(C(C)=O)CC[C@H]2[C@@H]3C[C@H](C)C4=CC(=O)C=C[C@]4(C)[C@@]3(F)[C@@H](O)C[C@@]21C = 3.88
Cc1c(NC(=O)c2cccnc2)c(=O)n(-c2ccccc2)n1C = 5.52
COc1ccccc1N1CCN(CC(O)COc2cccc3ccccc23)CC1 (stereo not drawn) = 0.873
C[C@@](Cc1ccc(O)c(O)c1)(NN)C(=O)O = 2.9
C[C@]12CC[C@@H]3c4ccc(O)cc4CC[C@H]3[C@@H]1C[C@@H](O)[C@@H]2O = -10.4
COc1cc(C(C)=O)ccc1OCCCN1CCC(c2noc3cc(F)ccc23)CC1 = -12.2

Per the records, this compound ( Cn1nnc2c(C(N)=O)ncn2c1=O ) has growth inhibition equal to 0.031

Per the records, this compound ( CCn1cc(C(=O)O)c(=O)c2cc(F)c(N3CCNCC3)nc21 ) has growth inhibition equal to 0.763

Per the records, this compound ( CN1CCC(OC(c2ccccc2)c2ccccc2)CC1 ) has growth inhibition equal to 3.73

----------
Test system: HGGX6 (H3.3 G34R paediatric high-grade glioma line)
test summary: growth inhibition (% activity, log2 RLU normalised to DMSO / staurosporine); higher = more growth inhibition
details: 33 µM
Parameter: growth inhibition. Scope: all listed entries.
Give a bare numeral; the unit % is implied.

Use these answered entries as a reference point.
CC(=O)NS(=O)(=O)c1ccc(N)cc1 = 2.46
COC(=O)[C@@H]1CC2=CC(=O)CC[C@]2(C)[C@@]23O[C@@H]2C[C@@]2(C)[C@@H](CC[C@@]24CCC(=O)O4)[C@H]13 = 1.56
C[C@@H](O[C@H]1OCCN(Cc2n[nH]c(=O)[nH]2)[C@H]1c1ccc(F)cc1)c1cc(C(F)(F)F)cc(C(F)(F)F)c1 = 7.33
CNCCCC12CCC(c3ccccc31)c1ccccc12 = -0.808
C[N+](C)(C)CCCCCC[N+](C)(C)C = -5.38

// next item, growth inhibition requested
// compound CCCC(C(=O)OCCN(CC)CC)(c1ccccc1)c1ccccc1 , assay HGGX6, growth inhibition value: 3.92

----------
Tested on: HGGX6
test summary: growth inhibition (% activity, log2 RLU normalised to DMSO / staurosporine); higher = more growth inhibition
details: 33 µM
Parameter: growth inhibition. Scope: all listed entries.
Give a bare numeral; the unit % is implied.

Use these answered entries as a reference point.
CCCN(CCC)S(=O)(=O)c1ccc(C(=O)O)cc1 = -3.52
CC1CCc2c(N3CCC(O)CC3)c(F)cc3c(=O)c(C(=O)O)cn1c23 (configuration not stated) = 2.89
C[C@H](Cc1cc2c(c(C(N)=O)c1)N(CCCO)CC2)NCCOc1ccccc1OCC(F)(F)F = -0.678
Cc1ncc([N+](=O)[O-])n1CC(C)O (configuration not stated) = 0.138
Nc1nccs1 = -1.25

Per the records, this molecule ( CC(=O)Nc1ncc([N+](=O)[O-])s1 ) has growth inhibition equal to 1.88

Per the records, this molecule ( Clc1ccc(C(c2ccccc2Cl)C(Cl)Cl)cc1 (configuration not stated) ) has growth inhibition equal to -0.0252

Per the records, this molecule ( NCCCC(O)(P(=O)(O)O)P(=O)(O)O ) has growth inhibition equal to -0.423

Per the records, this molecule ( COc1cc2ncnc(Nc3ccc(F)c(Cl)c3)c2cc1OCCCN1CCOCC1 ) has growth inhibition equal to 4.13

Per the records, this molecule ( O=P(O)(O)C(Cl)(Cl)P(=O)(O)O ) has growth inhibition equal to -0.402

Per the records, this molecule ( CCCC(=O)OCOC(=O)C1=C(C)NC(C)=C(C(=O)OC)C1c1cccc(Cl)c1Cl (configuration not stated) ) has growth inhibition equal to -0.314

Per the records, this molecule ( CCCOc1ccc(C(=O)OCCN(CC)CC)cc1N ) has growth inhibition equal to 3.2
